Molecular target: T1, talin2 F2F3 domains
T1 chain: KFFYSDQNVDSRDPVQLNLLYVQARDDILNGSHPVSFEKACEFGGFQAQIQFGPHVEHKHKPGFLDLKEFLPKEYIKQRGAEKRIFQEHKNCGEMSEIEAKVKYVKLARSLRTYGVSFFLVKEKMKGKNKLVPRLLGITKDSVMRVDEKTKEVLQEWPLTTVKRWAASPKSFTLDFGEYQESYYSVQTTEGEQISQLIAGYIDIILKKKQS
Assay: FP
pKd: −log10 of the molar value. Ends that are not written are not given here.
QUANTITY_KIND: pKd

• KLLMIIHDRREFAKFEKEKMNAKWDTGENPIYKSAVTTVVNPKYEGK (not fully specified (N-terminus)) [β1A] = 4.45
